Entry source: ChEMBL document CHEMBL3297708

Entries and their solubility values follow.
- assayOverview: Solubility of the compound in aqueous solution at pH 2.1
- Assay type: physicochemical
Answer in µg/mL, number only, no unit symbol.

Would you please look over these solved cases?
CCc1nc2ccc(Cl)cn2c1C(=O)NCc1ccc(N2CCC(c3ccc(OC(F)(F)F)cc3)CC2)cc1 41.5
CCc1nc2ccc(Cl)cn2c1C(=O)NCc1ccc(N2CCC(c3ccc(Cl)cc3)CC2)cc1 39.7
CCc1nc2ccc(Cl)cn2c1C(=O)NCc1ccc(-c2ccc(Cl)cc2)cc1 1.42
CCc1nc2cc(Cl)ccn2c1C(=O)NCc1ccc(N2CCC(c3ccc(OC(F)(F)F)cc3)CC2)cc1 55.8
CCc1nc2ccc(Cl)cn2c1C(=O)NCc1ccc(N2CCN(c3ccc(OC(F)(F)F)cc3)CC2)cc1 12.1
CCc1nc2ccc(Cl)cn2c1C(=O)NCc1ccc(N2CCC(c3ccc(F)cc3)CC2)cc1 38.5
CCc1nc2ccc(Cl)cn2c1C(=O)NCc1ccc(N2CCN(c3ccc(F)cc3)CC2)cc1 38.5
CCc1nc2ccc(Cl)cn2c1C(=O)NCc1ccc(-c2ccc(C)cc2)cc1 1.42

Query :: Request the reported solubility associated with CCc1nc2ccc(Cl)cn2c1C(=O)NCc1ccc(-c2ccc(C#N)cc2)cc1
Result :: 1.06
